System: MDR1
Experiment: Blood-brain-barrier (BBB) penetration potential via MDCK-MDR1 permeability assay
Conditions: dog, MDCK-MDR1, pH 7.4, MDCK-MDR1: Efflux, efflux ratio
1 means recorded efflux ratio at 120 min, 5 μM is 20 or above; 0 means it is below 20.

Solved entries (count: 5):
>  <MOLECULE>
COc1cn(-c2ccc(-c3ccc(N(C)[C@H]4C[C@@H]5CC(F)(F)[C@H](C4)N5)nn3)c(O)c2)cn1 [Compound 19B]

>  <QUALITATIVE LABEL>
0

$$$$
>  <MOLECULE>
CN(c1ccc(-c2ccc(-c3cn[nH]c3)cc2O)nn1)C1CC2COCC(N2)C1F (centres unmarked)

>  <QUALITATIVE LABEL>
1

$$$$
>  <MOLECULE>
CN(c1ccc(-c2cc3c(=O)n(C)ccc3s2)nn1)[C@H]1C[C@@H]2CC[C@@H](N2)[C@H]1F (single isomer, unassigned) [Compound 68B]

>  <QUALITATIVE LABEL>
1

$$$$
>  <MOLECULE>
CN(c1ccc(-c2cc(F)c(-c3ccoc(=O)c3)cc2O)nn1)[C@@H]1C[C@H]2CC[C@H](N2)[C@@H]1F [Compound 17A]

>  <QUALITATIVE LABEL>
0

$$$$
>  <MOLECULE>
CN(c1ccc(-c2cc3nnccc3cc2O)nn1)[C@@H]1C[C@H]2CC[C@H](N2)[C@@H]1F [Compound 89A]

>  <QUALITATIVE LABEL>
1

$$$$

[ask] Tell me whether efflux ratio at 120 min, 5 μM is at least 20 here: CN(c1ccc(-c2cc3c(=O)n(C)cnc3cc2O)nn1)[C@@H]1C[C@H]2CC[C@H](N2)[C@@H]1F [Compound 85A]
[reply] 1

[ask] Does the reported efflux ratio at 120 min, 5 μM for CN(c1ccc(-c2cc3cnccc3cc2O)nn1)[C@H]1C[C@@H]2CC[C@H]([C@H]1F)N2C [Compound 93B] fall at or above the 20 mark?
[reply] 0

[ask] Decide: efflux ratio at 120 min, 5 μM of C#Cc1ccc(-c2ccc(N(C)[C@@H]3C[C@H]4CC[C@H](N4)[C@@H]3F)nn2)c(O)c1 [Compound 10A] >= 20?
[reply] 0

[ask] For this molecule, is measured efflux ratio at 120 min, 5 μM 20 or higher? CN(c1ccc(-c2ccc(-c3cc[nH]n3)cc2O)nn1)[C@H]1C[C@@H]2CC[C@@H](N2)[C@H]1F (single isomer, unassigned) [Compound 33B]
[reply] 1

[ask] Hi, just wondering whether Cc1ccc(-c2ccc(-c3ccc(N(C)[C@@H]4C[C@H]5CCC[C@H](N5)[C@@H]4F)nn3)c(O)c2)nn1 [Compound 27A] shows efflux ratio at 120 min, 5 μM of 20 or higher.
[reply] 1

[ask] Exam item: decide whether the reported efflux ratio at 120 min, 5 μM for CN(c1ccc(-c2ccc(-n3nccn3)cc2O)nn1)[C@H]1C[C@@H]2CCC[C@@H](N2)[C@H]1F is at least 20.
[reply] 0

[ask] Does the molecule CN(c1ccc(-c2cc3ncccc3cc2O)nn1)[C@H]1C[C@@H]2CC[C@@H](N2)[C@H]1F [Compound 73B] have recorded efflux ratio at 120 min, 5 μM that is 20 or more?
[reply] 0

[ask] Assess whether reported efflux ratio at 120 min, 5 μM for CN(c1ccc(-c2ccc(-c3cnn(C(F)F)c3)cc2O)nn1)[C@H]1C[C@@H]2CC[C@@H](N2)[C@H]1F [Compound 20B] sits at 20 or higher.
[reply] 0

[ask] Identify whether the reported efflux ratio at 120 min, 5 μM of the following molecule is 20 or greater: CN(c1ccc(-c2cc(F)c(-c3ccn(C)c(=O)c3)cc2O)nn1)[C@@H]1C[C@H]2CC(F)(F)[C@@H](C1)N2 [Compound 22A]
[reply] 1
